For each of the sequences below, state its switch fluorescence ratio.
System: ATP;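 also: ATP exposure 15 min at 22 °C before imaging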
Experiment: switch fluorescence ratio, 500 uM ATP over buffer (Cy3 cluster intensity, sum of 5 cycles each) (fold (ratio)); higher = stronger signal-on switching upon ATP binding; sequences stand for … in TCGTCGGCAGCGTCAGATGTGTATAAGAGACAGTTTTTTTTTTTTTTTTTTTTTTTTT…TC
Conditions: aptamer strand: ATP DNA aptamer (quencher-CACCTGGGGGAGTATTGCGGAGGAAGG + anchor), 100 nM annealed; ATP concentration: 500 uM
Give bare numbers.

Example entries and their recorded answers appear below.
[[record]]
residues = "ATTCATTCGG"
system_name = "ATP"
metric = "switch fluorescence ratio"
meas_value = 0.992

[[record]]
residues = "TTGCATACGT"
system_name = "ATP"
metric = "switch fluorescence ratio"
meas_value = 1.61

[[record]]
residues = "ACTAGCTACT"
system_name = "ATP"
metric = "switch fluorescence ratio"
meas_value = 1.14


Would you be so kind as to report switch fluorescence ratio for each listed record?
1. GGAGGGGCGT
2. CAAGTTGTTA
3. ACGAATGGTG
4. CGTTTCGTTG
5. GCATGTCTGC

1: 0.993; 2: 0.964; 3: 1.02; 4: 0.963; 5: 0.986
